Biological target: Calf intestinal adenosine deaminase (Bos taurus, UniProt P56658)
Sequence (P56658 1-363): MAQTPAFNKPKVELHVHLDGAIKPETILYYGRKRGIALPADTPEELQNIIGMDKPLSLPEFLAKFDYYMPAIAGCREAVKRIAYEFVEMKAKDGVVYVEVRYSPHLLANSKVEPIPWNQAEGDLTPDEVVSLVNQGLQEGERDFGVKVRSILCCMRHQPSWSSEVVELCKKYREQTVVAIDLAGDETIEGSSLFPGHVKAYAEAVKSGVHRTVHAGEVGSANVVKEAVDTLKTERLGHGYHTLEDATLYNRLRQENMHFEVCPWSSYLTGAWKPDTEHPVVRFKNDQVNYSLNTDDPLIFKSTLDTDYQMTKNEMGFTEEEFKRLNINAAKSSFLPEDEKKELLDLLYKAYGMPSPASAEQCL
Assay: Selective identification of adenosine deaminase binders from a synthetic library of EHNA-type analogs (ultrafiltration, electrospray MS)
Format: binding
Details: scan mode, positive ion electrospray MS; ADA 7.35 μM; approximately 10 nM each analog; pH 7.4; methanol/water 90:10
measuredEndpoint: detected eluting from the device in the recovery phase

Solved entries:
Answer with the recorded detected eluting from the device in the recovery phase for the compound listed here: CC(O)C(Cc1ccccc1)n1cnc2c(N)ncnc21 (centres unmarked)
not detected

Consider the compound CC(C)CC(C(C)O)n1cnc2c(N)ncnc21 (centres unmarked) and give its recorded detected eluting from the device in the recovery phase.
not detected

For the compound CCCCCCCCCCC(C(C)O)n1cnc2c(N)ncnc21 (centres unmarked) , give its reported detected eluting from the device in the recovery phase.
detected

Tell me its detected eluting from the device in the recovery phase given CCCCCC[C@H]([C@H](C)O)n1cnc2c(N)ncnc21 (relative stereo) [EHNA, erythro-9-(2-hydroxy-3-nonyl)adenine] as the entry.
detected

More entries:
Provide detected eluting from the device in the recovery phase value for the following compound: CCCCCCCCC(C(C)O)n1cnc2c(N)ncnc21 (centres unmarked)
detected
